target: HLA-A*02:12; assay: IEDB peptide-MHC binding, purified MHC/direct/fluorescence; filed as Kd, often an IC50 or EC50 that approximates it; bounds were set here for any values at or beyond the usual limits of such assays; settings: source organism: Influenza A virus H3N2
endpoint_name: Kd

Sample AVDADDSHF , system: HLA-A*02:12. Its Kd is ≥ 20 µM

###

target: HLA-B*44:02; assay: IEDB peptide-MHC binding, purified MHC/competitive/radioactivity; filed as Kd, often an IC50 or EC50 that approximates it; bounds were set here for any values at or beyond the usual limits of such assays; conditions: source organism: Dengue virus 2 Jamaica/1409/1983
endpoint_name: Kd (nM)
Answer format: numeric, nM implied, no suffix.

sequence FEKQLGQVM , Kd observed: 319

sequence VEGVSGGSW , Kd observed: 220

###

target: HLA-A*01:01; test: IEDB peptide-MHC binding, purified MHC/direct/fluorescence; filed as Kd, often an IC50 or EC50 that approximates it; bounds were set here for any values at or beyond the usual limits of such assays; details: source organism: Lassa virus Josiah
endpoint_name: Kd

Sample NHYLCLNCL , system: HLA-A*01:01. Its Kd is ≥ 20 µM

###

target: HLA-A*02:03; test: IEDB peptide-MHC binding, purified MHC/competitive/radioactivity; filed as Kd, often an IC50 or EC50 that approximates it; bounds were set here for any values at or beyond the usual limits of such assays; settings: source organism: Vaccinia virus Copenhagen
endpoint_name: Kd (nM)
Answer format: numeric, nM implied, no suffix.

Sample LILSCIFAFI , system: HLA-A*02:03. Its Kd is 19.9

###

biological target: HLA-A*11:01; experiment: IEDB peptide-MHC binding, purified MHC/direct/fluorescence; filed as Kd, often an IC50 or EC50 that approximates it; bounds were set here for any values at or beyond the usual limits of such assays; settings: source organism: Yersinia enterocolitica
endpoint_name: Kd (nM)
Answer format: numeric, nM implied, no suffix.

sequence RIYSHIAPY , Kd observed: 36.8

###

biological target: HLA-B*44:02; assay: IEDB peptide-MHC binding, purified MHC/competitive/radioactivity; filed as Kd, often an IC50 or EC50 that approximates it; bounds were set here for any values at or beyond the usual limits of such assays; details: source organism: Hepacivirus hominis
endpoint_name: Kd

Sample RDWAHNSL , system: HLA-B*44:02. Its Kd is ≥ 75.4 µM

###

biological target: HLA-A*02:03; assay: IEDB peptide-MHC binding, purified MHC/competitive/fluorescence; filed as Kd, often an IC50 or EC50 that approximates it; bounds were set here for any values at or beyond the usual limits of such assays; conditions: source organism: Escherichia coli 536
endpoint_name: Kd

sequence RVGIYFGMK , Kd observed: ≥ 20 µM

###

target: HLA-A*02:50; experiment: IEDB peptide-MHC binding, purified MHC/direct/fluorescence; filed as Kd, often an IC50 or EC50 that approximates it; bounds were set here for any values at or beyond the usual limits of such assays; conditions: source organism: Rickettsia typhi
pKd: −log10 of the molar value.
endpoint_name: pKd

sequence ELYPTVNTY , pKd observed: ≤ 4.70

###

molecular target: HLA-A*24:02; assay: IEDB peptide-MHC binding, purified MHC/competitive/fluorescence; filed as Kd, often an IC50 or EC50 that approximates it; bounds were set here for any values at or beyond the usual limits of such assays; conditions: source organism: Yersinia pestis Nepal516
endpoint_name: pKd
# pKd = -log10(concentration in molar units)

sequence MLYPLLWMF , pKd observed: 7.42

###

biological target: HLA-A*69:01; assay: IEDB peptide-MHC binding, purified MHC/direct/fluorescence; filed as Kd, often an IC50 or EC50 that approximates it; bounds were set here for any values at or beyond the usual limits of such assays; details: source organism: Brucella abortus 2308
endpoint_name: pKd
# pKd = -log10(concentration in molar units)

sequence QMDGAILVV , pKd observed: 5.46

###

biological target: HLA-C*12:03; assay: IEDB peptide-MHC binding, purified MHC/direct/fluorescence; filed as Kd, often an IC50 or EC50 that approximates it; bounds were set here for any values at or beyond the usual limits of such assays; details: source organism: Vibrio vulnificus YJ016
endpoint_name: Kd (nM)
Answer format: numeric, nM implied, no suffix.

sequence YTMELCGAM , Kd observed: 88

###

biological target: HLA-B*39:01; experiment: IEDB peptide-MHC binding, purified MHC/competitive/fluorescence; filed as Kd, often an IC50 or EC50 that approximates it; bounds were set here for any values at or beyond the usual limits of such assays; settings: source organism: Vibrio cholerae O395
endpoint_name: Kd

sequence RVHFHRFMY , Kd observed: ≥ 20 µM

###

target: HLA-A*29:02; assay: IEDB peptide-MHC binding, purified MHC/competitive/fluorescence; filed as Kd, often an IC50 or EC50 that approximates it; bounds were set here for any values at or beyond the usual limits of such assays; details: source organism: Salmonella enterica subsp. enterica serovar Typhi
endpoint_name: Kd

Sample HVTQHWPQL , system: HLA-A*29:02. Its Kd is ≥ 20 µM

###

target: HLA-A*01:01; test: IEDB peptide-MHC binding, purified MHC/direct/fluorescence; filed as Kd, often an IC50 or EC50 that approximates it; bounds were set here for any values at or beyond the usual limits of such assays; conditions: source organism: Influenza A virus (A/camel/Mongolia/1982(H1N1))
endpoint_name: Kd

sequence ELDEIGEDV , Kd observed: ≥ 20 µM

###

target: HLA-B*27:03; assay: IEDB peptide-MHC binding, purified MHC/competitive/fluorescence; filed as Kd, often an IC50 or EC50 that approximates it; bounds were set here for any values at or beyond the usual limits of such assays; conditions: source organism: Shigella dysenteriae Sd197
endpoint_name: Kd

sequence IEDDEIIWV , Kd observed: ≥ 20 µM

###

biological target: HLA-A*30:01; experiment: IEDB peptide-MHC binding, purified MHC/competitive/radioactivity; filed as Kd, often an IC50 or EC50 that approximates it; bounds were set here for any values at or beyond the usual limits of such assays; conditions: source organism: Dengue virus 2 Jamaica/1409/1983
Decide using Kd alone. Strictly below 5000 nM: rule met. Equal to or above 5000 nM: rule not met.

Ask: # check: Kd < 5000 nM for LALLAAFKVR
Result: rule met

Ask: # check: Kd < 5000 nM for ITEMGRLPTF
Result: rule not met

Ask: # check: Kd < 5000 nM for TSKKRSWPLN
Result: rule met

Ask: # check: Kd < 5000 nM for DTITYKCPLL
Result: rule met

Ask: # check: Kd < 5000 nM for LAAVSVSPLL
Result: rule not met

Ask: # check: Kd < 5000 nM for KSHTLWSNG
Result: rule met

Ask: # check: Kd < 5000 nM for LRFLTIPPTA
Result: rule met

###

target: HLA-A*68:23; assay: IEDB peptide-MHC binding, purified MHC/competitive/fluorescence; filed as Kd, often an IC50 or EC50 that approximates it; bounds were set here for any values at or beyond the usual limits of such assays; conditions: source organism: Zaire ebolavirus
endpoint_name: Kd (nM)
Answer format: numeric, nM implied, no suffix.

sequence TTIGEWAFW , Kd observed: 1.6

###

target: HLA-B*46:01; test: IEDB peptide-MHC binding, purified MHC/competitive/fluorescence; filed as Kd, often an IC50 or EC50 that approximates it; bounds were set here for any values at or beyond the usual limits of such assays; details: source organism: Zaire ebolavirus
pKd: −log10 of the molar value.
Consider the following sequences; for each one, report its pKd.

sequence TTIGEWAFW , pKd observed: ≤ 4.70

sequence LSDAIFDDL , pKd observed: ≤ 4.70

sequence FLSFASLFL , pKd observed: ≤ 4.70

###

molecular target: HLA-A*29:02; assay: IEDB peptide-MHC binding, purified MHC/competitive/fluorescence; filed as Kd, often an IC50 or EC50 that approximates it; bounds were set here for any values at or beyond the usual limits of such assays; conditions: source organism: Vibrio cholerae O395
endpoint_name: Kd (nM)
Answer format: numeric, nM implied, no suffix.

sequence RVHFHRFMY , Kd observed: 4.2

###

molecular target: HLA-B*46:01; assay: IEDB peptide-MHC binding, purified MHC/direct/fluorescence; filed as Kd, often an IC50 or EC50 that approximates it; bounds were set here for any values at or beyond the usual limits of such assays; details: source organism: Burkholderia mallei
pKd: −log10 of the molar value.
endpoint_name: pKd

sequence KLYPNVDFY , pKd observed: ≤ 4.70

###

molecular target: HLA-A*31:01; assay: IEDB peptide-MHC binding, purified MHC/competitive/radioactivity; filed as Kd, often an IC50 or EC50 that approximates it; bounds were set here for any values at or beyond the usual limits of such assays; settings: source organism: Lassa virus GA391
endpoint_name: pKd
# pKd = -log10(concentration in molar units)

sequence LMSIISTFH , pKd observed: 6.32
